Molecular target: Nb6E-biotin (biotin at the C terminus (sortagging))
Sequence (VHH, as listed by the source): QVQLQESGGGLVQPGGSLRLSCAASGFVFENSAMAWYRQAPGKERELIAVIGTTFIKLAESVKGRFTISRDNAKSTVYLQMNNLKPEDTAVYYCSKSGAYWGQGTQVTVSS
Test: SPR

- BINDER: "GGGQADQEAKELARQIS [G3-6E]"
  Kd / nM: 4.2

All values here come from paper PMC12212259.
